Target: human MC1R (Homo sapiens, UniProt Q01726)
Construct: expressed in transfected cells; host or cells: CHO-6xCRE-luc+ reporter cell line
Sequence (Q01726 whole entry): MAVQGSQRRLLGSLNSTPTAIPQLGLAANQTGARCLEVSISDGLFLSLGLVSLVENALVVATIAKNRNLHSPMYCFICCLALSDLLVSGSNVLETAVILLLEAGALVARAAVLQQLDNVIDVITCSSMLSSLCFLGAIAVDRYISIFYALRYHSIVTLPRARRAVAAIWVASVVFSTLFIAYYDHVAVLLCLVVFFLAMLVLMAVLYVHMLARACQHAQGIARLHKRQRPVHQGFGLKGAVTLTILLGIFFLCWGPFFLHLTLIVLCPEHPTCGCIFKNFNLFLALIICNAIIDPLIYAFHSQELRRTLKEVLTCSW
Assay: CHO-6xCRE-luc+ reporter gene assay, MC1R agonist activity
Type: cell-based
Conditions: CHO-6xCRE-luc+ cells expressing human MC1R, 4 h at 37° C., luciferase activity
Method: CHO-6×CRE-luc^+ reporter cell lines expressing human MC1R, MC3R, MC4R, and MC5R (GenBank accession numbers X65634, L06155, S77415 and U08353) and the CHO host reporter gene cell line were propagated in complete medium in T225 flasks. […] The plates were then sealed and subjected to dark adaptation at room temperature for 10 min before luciferase activity was quantitated on a TopCount™ microplate scintillation counter (Packard) using 3 s/well count time. […]
readout: EC50 (nM)
Just the number in nM, nothing appended.

Give the measured EC50 for CC(C)N(C(=O)CN1C=CN(c2ccccc2)C(=O)C(Cc2n[nH]c3ccccc23)C1=O)c1ccc(F)cc1 (stereo not shown)
50.1

Give the measured EC50 for CC(C)N(C(=O)CN1C=CN(c2ccccc2)C(=O)C(Cc2n[nH]c3ccccc23)C1=O)c1ccc(C(F)(F)F)cc1 (stereo not shown)
145

Give the measured EC50 for Cc1cc(OC(F)(F)F)ccc1N(C(=O)CN1C=CN(c2ccccc2)C(=O)C(Cc2n[nH]c3ccccc23)C1=O)C(C)C (stereo not shown)
70.8

Give the measured EC50 for COc1ccc(N(C(=O)CN2C=CN(c3ccccc3)C(=O)C(Cc3n[nH]c4ccccc34)C2=O)C(C)C)cc1 (stereo not shown) [Example 1]
29.5

* * *

Would you mind telling me the reported EC50 of each entry?
Target: human MC4R (Homo sapiens)
Sequence (P32245 whole entry): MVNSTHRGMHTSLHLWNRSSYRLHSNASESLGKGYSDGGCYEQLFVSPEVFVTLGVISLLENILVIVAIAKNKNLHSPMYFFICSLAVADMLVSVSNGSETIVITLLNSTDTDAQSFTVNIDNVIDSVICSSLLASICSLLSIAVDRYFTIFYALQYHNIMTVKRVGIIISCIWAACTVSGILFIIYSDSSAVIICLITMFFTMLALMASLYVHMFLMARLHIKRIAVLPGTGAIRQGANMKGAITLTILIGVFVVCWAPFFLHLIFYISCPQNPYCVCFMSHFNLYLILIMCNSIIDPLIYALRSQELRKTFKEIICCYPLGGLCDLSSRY
Assay: CHO-6xCRE-luc+ reporter gene assay, MC4R agonist activity
Conditions: CHO-6xCRE-luc+ cells expressing human MC4R, 4 h at 37° C., luciferase activity
Procedure: CHO-6×CRE-luc^+ reporter cell lines expressing human MC1R, MC3R, MC4R, and MC5R (GenBank accession numbers X65634, L06155, S77415 and U08353) and the CHO host reporter gene cell line were propagated in complete medium in T225 flasks. […] The plates were then sealed and subjected to dark adaptation at room temperature for 10 min before luciferase activity was quantitated on a TopCount™ microplate scintillation counter (Packard) using 3 s/well count time. […]
Just the number in µM, nothing appended.

Give the measured EC50 for COc1ccc(N(C(=O)CN2C=CN(c3ccccc3)C(=O)C(Cc3n[nH]c4ccccc34)C2=O)C(C)C)cc1 (stereo not shown) [Example 1]
0.417

Give the measured EC50 for CCc1ccc(N(C(=O)CN2C=CN(c3ccccc3)C(=O)C(Cc3n[nH]c4ccccc34)C2=O)C(C)C)cc1 (stereo not shown)
0.347

Give the measured EC50 for CCCc1ccc(N(C(=O)CN2C=CN(c3ccccc3)C(=O)C(Cc3n[nH]c4ccccc34)C2=O)C(C)C)cc1 (stereo not shown)
0.389

Give the measured EC50 for CC(C)N(C(=O)CN1C=CN(c2ccccc2)C(=O)C(Cc2n[nH]c3ccccc23)C1=O)c1ccc(Cl)cc1 (stereo not shown)
0.0427

* * *

Would you mind telling me the reported Emax of each entry?
Molecular target: human MC4R (Homo sapiens)
Construct: expressed in transfected cells; host or cells: CHO-6xCRE-luc+ reporter cell line
Assay: CHO-6xCRE-luc+ reporter gene assay, MC4R agonist activity
Format: cell-based
Conditions: 4 h; percentage of the fold stimulation in the NDP-αMSH control (1×10^−7 M), human MC4R; read-out: % Max MSH

Give the measured Emax for COc1cccc2c1CCCCN2C(=O)CN1C=CN(c2ccccc2)C(=O)C(Cc2n[nH]c3ccccc23)C1=O (stereo not shown)
77%

Give the measured Emax for COC1(Cc2n[nH]c3ccccc23)C(=O)N(CC(=O)N(c2ccc(F)cc2)C(C)C)C=CN(c2ccccc2)C1=O (stereo not shown)
78%

Give the measured Emax for CC(C)N(C(=O)CN1C=CN(c2ccccc2)C(=O)C(Cc2n[nH]c3ccccc23)C1=O)c1ccc(I)cc1 (stereo not shown)
49%

Give the measured Emax for COc1ccc(N(C(=O)CN2C=CN(c3ccccc3)C(=O)C(Cc3n[nH]c4ccccc34)C2=O)C(C)C)cc1 (single isomer, unassigned) [Example 2]
51%

Give the measured Emax for CC(C)N(C(=O)CN1C=CN(c2ccccc2)C(=O)C(Cc2n[nH]c3ccccc23)C1=O)c1ccc(C(F)(F)F)cc1 (stereo not shown)
55%

Give the measured Emax for CC(C)N(C(=O)CN1C=CN(c2ccccc2)C(=O)C(Cc2n[nH]c3ccccc23)C1=O)c1ccc(Cl)cc1 (stereo not shown)
58%

Give the measured Emax for CC(C)N(C(=O)CN1C=CN(c2ccccc2)C(=O)C(Cc2n[nH]c3ccccc23)C1=O)c1ccc(OC(F)(F)F)cc1 (stereo not shown)
51%

Give the measured Emax for COc1ccc(N(C(=O)CN2C=CN(c3ccccc3)C(=O)C(Cn3c(=O)[nH]c4ccccc43)C2=O)C(C)C)cc1 (stereo not shown)
56%

Give the measured Emax for CCCc1ccc(N(C(=O)CN2C=CN(c3ccccc3)C(=O)C(Cc3n[nH]c4ccccc34)C2=O)C(C)C)cc1 (stereo not shown)
65%

Give the measured Emax for COc1ccc(N(C(=O)CN2C=CN(c3ccccc3)C(=O)C(Cc3n[nH]c4ccccc34)C2=O)C(C)C)cc1 (stereo not shown) [Example 1]
56%

Give the measured Emax for CCc1ccc(N(C(=O)CN2C=CN(c3ccccc3)C(=O)C(Cc3n[nH]c4ccccc34)C2=O)C(C)C)cc1 (stereo not shown)
53%

Give the measured Emax for CCOc1ccc(N(C(=O)CN2C=CN(c3ccccc3)C(=O)C(Cc3n[nH]c4ccccc34)C2=O)C(C)C)cc1 (stereo not shown)
65%

Give the measured Emax for Cc1cc(OC(F)(F)F)ccc1N(C(=O)CN1C=CN(c2ccccc2)C(=O)C(Cc2n[nH]c3ccccc23)C1=O)C(C)C (stereo not shown)
52%

* * *

Target: human MC1R (Homo sapiens)
Test: CHO-6xCRE-luc+ reporter gene assay, MC1R agonist activity
Conditions: CHO-6xCRE-luc+ cells expressing human MC1R, 4 h at 37° C., luciferase activity
Would you mind telling me the reported EC50 of each entry?
Just the number in nM, nothing appended.

Give the measured EC50 for CC(C)N(C(=O)CN1C=CN(c2ccccc2)C(=O)C(Cc2n[nH]c3ccccc23)C1=O)c1ccccc1 (centres unmarked)
295

Give the measured EC50 for CC(C)Oc1ccc(N(C(=O)CN2C=CN(c3ccccc3)C(=O)C(Cc3n[nH]c4ccccc34)C2=O)C(C)C)cc1 (centres unmarked)
74.1

Give the measured EC50 for CCc1ccc(N(C(=O)CN2C=CN(c3ccccc3)C(=O)C(Cc3n[nH]c4ccccc34)C2=O)C(C)C)cc1 (centres unmarked)
148

Give the measured EC50 for CC1CCc2ccccc2N1C(=O)CN1C=CN(c2ccccc2)C(=O)C(Cc2n[nH]c3ccccc23)C1=O (centres unmarked)
204

Give the measured EC50 for CCN(C(=O)CN1C=CN(c2ccccc2)C(=O)C(Cc2n[nH]c3ccccc23)C1=O)c1ccc(OC)cc1 (centres unmarked)
64.6

Give the measured EC50 for CCOc1ccc(N(C(=O)CN2C=CN(c3ccccc3)C(=O)C(Cc3n[nH]c4ccccc34)C2=O)C(C)C)cc1 (centres unmarked)
110

Give the measured EC50 for Cc1ccc(N(C(=O)CN2C=CN(c3ccccc3)C(=O)C(Cc3n[nH]c4ccccc34)C2=O)C(C)C)cc1 (centres unmarked)
269

Give the measured EC50 for O=C1C(Cc2n[nH]c3cc(F)ccc23)C(=O)N(c2ccccc2)C=CN1CC(=O)N1CCCCc2ccccc21 (centres unmarked)
1.58

Give the measured EC50 for CC(C)c1ccc(N(C(=O)CN2C=CN(c3ccccc3)C(=O)C(Cc3n[nH]c4ccccc34)C2=O)C(C)C)cc1 (centres unmarked)
224

Give the measured EC50 for CC(C)N(C(=O)CN1C=CN(c2ccccc2)C(=O)C(Cc2n[nH]c3ccccc23)C1=O)c1ccc(Cl)cc1 (centres unmarked)
112

Give the measured EC50 for CC(C)N(C(=O)CN1C=CN(c2ccccc2)C(=O)C(Cc2n[nH]c3cc(F)ccc23)C1=O)c1ccccc1 (single isomer, unassigned) [Example 21]
35.5

Give the measured EC50 for CC(C)N(C(=O)CN1C=CN(c2ccccc2)C(=O)C(Cc2n[nH]c3cc(F)ccc23)C1=O)c1ccccc1 (centres unmarked) [Example 20]
191

Give the measured EC50 for COc1ccc(N(C(=O)CN2C=CN(c3ccccc3)C(=O)C(Cc3n[nH]c4ccccc34)C2=O)C(C)C)cc1 (single isomer, unassigned) [Example 2]
18.6

Give the measured EC50 for CC(C)N(C(=O)CN1C=CN(c2ccccc2)C(=O)C(Cc2n[nH]c3ccccc23)C1=O)c1ccc(OC(F)(F)F)cc1 (centres unmarked)
22.4

* * *

Target: human MC1R (Homo sapiens)
Construct: expressed in transfected cells; host or cells: CHO-6xCRE-luc+ reporter cell line
Test: CHO-6xCRE-luc+ reporter gene assay, MC1R agonist activity
Format: cell-based
Settings: 4 h, percentage of the fold stimulation in the NDP-αMSH control (1×10^−7 M), human MC1R; read-out: % of MSH
Would you mind telling me the reported Emax of each entry?
Just the number in %, nothing appended.

Answer with Emax of Cc1cc(OC(F)(F)F)ccc1N(C(=O)CN1C=CN(c2ccccc2)C(=O)C(Cc2n[nH]c3ccccc23)C1=O)C(C)C (stereo not shown) measured for human MC1R (Homo sapiens).
74

Answer with Emax of CCCN(C(=O)CN1C=CN(c2ccccc2)C(=O)C(Cc2n[nH]c3ccccc23)C1=O)c1ccc(OC)cc1 (stereo not shown) measured for human MC1R (Homo sapiens).
72

Answer with Emax of CCOc1ccc(N(C(=O)CN2C=CN(c3ccccc3)C(=O)C(Cc3n[nH]c4ccccc34)C2=O)C(C)C)cc1 (stereo not shown) measured for human MC1R (Homo sapiens).
64

Answer with Emax of CC(C)N(C(=O)CN1C=CN(c2ccccc2)C(=O)C(Cc2n[nH]c3cc(F)ccc23)C1=O)c1ccccc1 (stereo not shown) [Example 20] measured for human MC1R (Homo sapiens).
51

Answer with Emax of CC(C)N(C(=O)CN1C=CN(c2ccccc2)C(=O)C(Cc2n[nH]c3cc(F)ccc23)C1=O)c1ccc(F)cc1 (stereo not shown) measured for human MC1R (Homo sapiens).
53

Answer with Emax of CC(C)N(C(=O)CN1C=CN(c2ccccc2)C(=O)C(Cc2n[nH]c3ccccc23)C1=O)c1ccc(Cl)cc1 (stereo not shown) measured for human MC1R (Homo sapiens).
73

Answer with Emax of COc1ccc(N(C(=O)CN2C=CN(c3ccccc3)C(=O)C(Cn3c(=O)[nH]c4ccccc43)C2=O)C(C)C)cc1 (stereo not shown) measured for human MC1R (Homo sapiens).
61

Data origin: patent US7442693B2
